Target: GST-Co-NF-kB (Capsaspora owczarzaki, UniProt F1ARL5 200-546)
Sequence: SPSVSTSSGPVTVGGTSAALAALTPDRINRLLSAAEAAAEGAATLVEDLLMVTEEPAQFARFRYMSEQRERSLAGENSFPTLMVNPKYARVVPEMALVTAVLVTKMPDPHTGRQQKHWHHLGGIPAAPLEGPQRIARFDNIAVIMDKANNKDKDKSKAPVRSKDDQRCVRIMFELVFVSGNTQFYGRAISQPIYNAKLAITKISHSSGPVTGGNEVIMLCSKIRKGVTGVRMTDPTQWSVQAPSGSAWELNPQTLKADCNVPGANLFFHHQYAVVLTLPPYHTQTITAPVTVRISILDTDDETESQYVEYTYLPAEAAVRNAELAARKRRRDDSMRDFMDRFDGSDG
Experiment: protein-binding microarray (PBM); PBM: ~300 nM protein, 6 mM HEPES pH 7.8, 80 mM KCl, 0.5 mM EDTA, 0.5 mM EGTA, 6% glycerol, 35 ng/ul poly-dIdC, 1% milk, 1 h, room temperature; high values mean tight binding
Details: dsDNA, one strand shown
So basically: is binding signal under 4 z-score? Then fulfilled. Not under? Then not fulfilled.

Reference set, count: 2
Problem: For the sequence CCGATTAACATCACGGGATTTTCTGATGTTAATCGGGTCTTGATTCGCTTGACGCTGCTG , is binding signal under 4 z-score? fulfilled

Quick check: does CCGATTAACATCAGGATATCCCATGATGTTAATCGGGTCTTGATTCGCTTGACGCTGCTG have binding signal under 4 z-score? fulfilled

More entries:
For this sequence, is binding signal lower than 4 z-score? CCGATTAACATCACTATTTCCCCTGATGTTAATCGGGTCTTGATTCGCTTGACGCTGCTG not fulfilled

For CCGATTAACATCATCAGGGAAAATGATGTTAATCGGGTCTTGATTCGCTTGACGCTGCTG , is the recorded binding signal below the cut-off of 4 z-score? fulfilled

----------
Biological target: GST-Nv-NF-kB (Cys allele) (Nematostella vectensis, UniProt E5G601 2-411)
Sequence: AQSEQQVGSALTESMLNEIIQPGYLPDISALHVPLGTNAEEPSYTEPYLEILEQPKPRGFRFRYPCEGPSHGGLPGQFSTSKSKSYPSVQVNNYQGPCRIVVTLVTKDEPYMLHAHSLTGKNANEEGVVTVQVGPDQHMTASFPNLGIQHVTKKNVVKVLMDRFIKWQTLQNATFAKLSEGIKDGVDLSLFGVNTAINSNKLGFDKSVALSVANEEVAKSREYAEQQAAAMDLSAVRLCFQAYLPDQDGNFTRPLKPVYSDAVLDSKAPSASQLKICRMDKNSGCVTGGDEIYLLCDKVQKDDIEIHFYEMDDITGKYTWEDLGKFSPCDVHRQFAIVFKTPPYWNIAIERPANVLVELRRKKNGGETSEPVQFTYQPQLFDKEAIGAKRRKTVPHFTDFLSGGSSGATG
Assay: protein-binding microarray (PBM); PBM: ~300 nM protein, 6 mM HEPES pH 7.8, 80 mM KCl, 0.5 mM EDTA, 0.5 mM EGTA, 6% glycerol, 35 ng/ul poly-dIdC, 1% milk, 1 h, room temperature; Ap Aiptasia and Nv Nematostella (sea anemones) / Co Capsaspora / Aq Amphimedon (sponge) / Dm Drosophila / Hu human; RHD is the Rel homology domain; high values mean tight binding
Conditions: dsDNA, one strand shown
Assignment: determine reported binding signal for the given sequences.
One number for each entry, in z-score.

Some solved cases for reference:
Can you share its binding signal? I mean this sequence: CCGATTAACATCACTGGATTCCCTGATGTTAATCGGGTCTTGATTCGCTTGACGCTGCTG 2.76

Would you kindly share the measured binding signal for CCGATTAACATCAGGGGAAGTAATGATGTTAATCGGGTCTTGATTCGCTTGACGCTGCTG ? 6.3

Look at this sequence and give its reported binding signal. CCGATTAACATCAGGGATATCCATGATGTTAATCGGGTCTTGATTCGCTTGACGCTGCTG 1.09

What does the data say about its binding signal? Entry: CCGATTAACATCAGGGGGAACAATGATGTTAATCGGGTCTTGATTCGCTTGACGCTGCTG 5.75

Now consider a different sequence.
Record request: binding signal value, item CCGATTAACATCATCAGGGGGGATGATGTTAATCGGGTCTTGATTCGCTTGACGCTGCTG 4.51
